target: Opioid receptors; delta & kappa (Homo sapiens, UniProt P41145+P41143); test: Inhibition of [3H]deltorphin II binding to delta and kappa opioid receptors coexpressed in HEK 293 cells; type: cell-based; conditions: hek293
measured.parameter: Ki (nM)
Quick note: give the figure in nM, leave out the unit.

molecular.string | target.or.test.system | unit.abbrev | Ki
CNC(=O)CNC(=O)CCC(=O)NCC(=O)Nc1cccc2c3c([nH]c12)[C@@H]1Oc2c(O)ccc4c2[C@@]12CCN(CC1CC1)[C@H](C4)[C@]2(O)C3 | Opioid receptors; delta & kappa (Homo sapiens, UniProt P41145+P41143) | nM | 0.46

Briefly, Ki measured for CN(C(=O)Cc1ccc(Cl)c(Cl)c1)[C@H](CN1CCCC1)c1cccc(NC(=O)CNC(=O)CNC(=O)CCC(=O)NCC(=O)NCC(=O)Nc2cccc3c4c([nH]c23)[C@@H]2Oc3c(O)ccc5c3[C@@]23CCN(CC2CC2)[C@H](C5)[C@]3(O)C4)c1 : 0.008
